Data provenance is the OPERA property sets (Mansouri et al. 2018).

Measurement Type: logP
Please state the value as a number alone, without comment.

In the examples that follow, each entry is paired with its recorded logP.
- Compound: "CCCCCCOC(=O)c1ccccc1C(=O)OCCCCCC"
  Measurement Type: "logP"
  Reported: 6.82
- Compound: "Cc1ccc(OCCN(C)C)cc1"
  Measurement Type: "logP"
  Reported: 2.17
- Compound: "CCCCC(O)CCC (centres undefined)"
  Measurement Type: "logP"
  Reported: 2.68
- Compound: "CC(C)COC(=O)n1c(-c2cscn2)nc2ccccc21"
  Measurement Type: "logP"
  Reported: 3.46
- Compound: "CCCc1oc(C)cc(=O)c1O"
  Measurement Type: "logP"
  Reported: 1.4

// logP value for `O=[N+]([O-])c1ccc2c(c1)Cc1cc([N+](=O)[O-])ccc1-2` : 3.35

// logP value for `CCNc1nc(NC(C)(C)C)nc(OC)n1` : 3.1

// logP value for CC1CCCC(C)C1O (centres undefined) : 2.1
